Would you mind telling me the reported inhibition at 40 µM of each entry?
# Test system: RAW264.7
# procedureDetails: Antiinflammatory activity in mouse RAW264.7 cells assessed as inhibition of LPS-induced NO production at 40 uM relative to control
# Type: functional
Form entry: value (%) — number only.

Summary line: "C[C@]1(C(=O)OC[C@H]2O[C@@H](O[C@]34CC5C3(COC(=O)c3ccccc3)[C@H]3O[C@]5(O)C[C@]4(C)O3)[C@H](O)[C@@H](O)[C@@H]2O)[C@@H]2CC[C@H](CO)[C@H]1C2" , RAW264.7, reported inhibition at 40 µM = 25.8

Summary line: "C=C[C@@](C)(O)CC/C=C(\C)C(=O)OC[C@H]1O[C@@H](O[C@]23CC4C2(COC(=O)c2ccccc2)[C@H]2O[C@]4(O)C[C@]3(C)O2)[C@H](O)[C@@H](O)[C@@H]1O" , RAW264.7, reported inhibition at 40 µM = 28.1

Summary line: "CC12C(=O)O[C@@]3(C)C[C@@H](O)[C@H]1C[C@]23O[C@@H]1O[C@H](COC(=O)c2ccccc2)[C@@H](O)[C@H](O)[C@H]1O" , RAW264.7, reported inhibition at 40 µM = 28.2

Reference for the values: ChEMBL document CHEMBL4145570
